Data origin: PubChem BioAssay (NCI)

- Tested on: SNB-75 CNS
- procedure.text: NCI-60 one-dose screen, 48 h (100 = growth as untreated, 0 = no growth, -100 = all killed)
- condition.set: 10 µM unless noted
About 83,000 compounds went through this panel and 20% of them were active in at least one assay; those are over-represented in the sample as a whole.
growth: recorded values
result.type: growth (%)

• CCCC(=O)OCC(COC(=O)CCC)OC(=O)CCC = 93.5
• COC(=O)c1nc(N)nc(C(=O)OC)c1C(=O)c1cccc2ccccc12 = 104
• NNC(=O)Nc1ccccc1 = 87.9
• Cc1c(Cl)cc(Cl)c(N)c1Cl = 91.2
• O=C(N=C1C(=O)C2(CCCCC2)C2(N=C(c3ccccc3)OC2=O)C12CCCCC2)c1ccccc1 (stereo not given) = 85.2
• O=C(c1ccncc1)c1c(Cc2ccccc2)ccc2ccccc12 = 90.4
• Nc1ccc(Cl)c(S(=O)(=O)O)c1 = 93.3
• O=C(O)COc1ccccc1F = 94.4
• CCn1c2ccc(N(C)C)cc2c2cc(N(C)C)ccc21 = 99.3
• COc1ccc(/C=N/Nc2nc3ccccc3s2)cc1 = 80.5
• COC(=O)c1ccccc1Cl = 96.6
• c1ccc2c[n+](Cc3ccc4ccccc4n3)ccc2c1 = 79.7
• COc1ccc(CCO)cc1 = 101
• O=C(c1ccccc1)C1(Br)CCCCC1 = 95.2
• COc1ccc(CCNC(=S)NN)cc1OC = 106
